molecular target: Genome polyprotein (dengue virus type 2); conditions: Thailand/16681/1984, Concentration 25.0 uM, Number of replicates 1.0
Hit rate of the full screen: of about 2,000 compounds, about 110 (5.5%) showed an effect of 50% or more. The sample as a whole holds a higher share of strong results than the screen did.
measured-property: inhibition (%)
One number for each entry, in %.

compound-smiles | inhibition / %
COc1ccccc1N1CCN(C(=O)C2CCN(c3ccc(C=O)cc3)CC2)CC1 | 12.1
C[C@H](NC(=O)C1CCN(c2ccc(C=O)cc2)CC1)c1ccc(Br)cc1 | 12.7
Cc1cnc(NC(=O)C2CCN(c3ccc(C=O)cc3)CC2)c([N+](=O)[O-])c1 | 14.4
O=Cc1ccc(N2CCC(C(=O)NCc3ccc(Br)s3)CC2)cc1 | 12.4
O=Cc1ccc(N2CCC(C(=O)NCc3cc(C(F)(F)F)ccc3C(F)(F)F)CC2)cc1 | 1.04

Could I get inhibition for every one of these entries?
1. O=Cc1ccc(N2CCC(C(=O)Nc3ccccc3Sc3ccccc3)CC2)cc1
2. C[C@@H](c1ccccc1)N(C(=O)C1CCN(c2ccc(C=O)cc2)CC1)[C@@H](C)c1ccccc1
3. O=Cc1ccc(N2CCC(C(=O)N[C@H]3C[C@@H]3c3ccc(F)c(F)c3)CC2)cc1

1. 12.1
2. 15.2
3. 12.2

Data origin, for the record: ChEMBL document CHEMBL5606460
